Reference source: patent US6737383B1

# Test system: giant foxtail
# assay-notes: Test B pre/postemergence giant foxtail
# Assay type: in vivo, Setaria faberii
# particulars: Preemergence, Rate 62 g/ha; scale 0 to 10 (0 no effect, 10 complete control)
reported-metric: Giant foxtail plant response rating

# annotated cases, reported Giant foxtail plant response rating shown
| compound | reported-metric | data-value |
| --- | --- | --- |
| CC(C)N(C(=O)n1oc(=O)n(CC(C)[N+](=O)[O-])c1=O)c1ccccc1 (stereo not shown) | Giant foxtail plant response rating | 0 |
| Cc1nn(C)c(C)c1-n1c(=O)on(C(=O)N(c2ccc(F)cc2)C(C)C)c1=O | Giant foxtail plant response rating | 6 |
| CCOC(Cn1c(=O)on(C(=O)N(c2ccccc2)C(C)C)c1=O)OCC | Giant foxtail plant response rating | 8 |

Documented Giant foxtail plant response rating of CC(C)N(C(=O)n1oc(=O)n(C2CCCCC2)c1=O)c1ccc(Cl)cc1 : 8

----------
# Test system: blackgrass
# assay-notes: Test B pre/postemergence blackgrass
# Type: in vivo, Alopecurus myosuroides
# particulars: Preemergence, Rate 62 g/ha; scale of 0 to 10 where 0 is no effect and 10 is complete control
# Description: […] At the same time, these crop and weed species were also treated with postemergence applications of test chemicals formulated in the same manner. […] Treated plants and controls were maintained in a greenhouse for twelve to sixteen days, after which all species were compared to controls and visually evaluated. […]
reported-metric: Blackgrass plant response rating
Give the figure only, with no unit attached.

| molecule | study-target | Blackgrass plant response rating |
| --- | --- | --- |
| Cc1c(-n2c(=O)on(C(=O)N(c3ccc(F)cc3)C(C)C)c2=O)ccc2ccccc12 [Compound 338] | blackgrass | 0 |
| CC(C)N(C(=O)n1oc(=O)n(C2CC2)c1=O)c1ccc(Cl)cc1 [Compound 241] | blackgrass | 6 |
| CCn1ncc(Cn2c(=O)on(C(=O)N(c3ccc(F)cc3)C(C)C)c2=O)c1Cl [Compound 686] | blackgrass | 4 |

Field: next molecule
Documented Blackgrass plant response rating of CC(C)N(C(=O)n1oc(=O)n(CCCN(C)C)c1=O)c1ccc(F)cc1 [Compound 323] : 0

----------
Reported values of Velvetleaf plant response rating for individual entries
# Test system: velvetleaf
# assay-notes: Test B pre/postemergence velvetleaf
# Format: in vivo, Abutilon theophrasti
# particulars: Postemergence, Rate 125 g/ha; scale of 0 to 10 where 0 is no effect and 10 is complete control
Give the figure only, with no unit attached.

# annotated cases, reported Velvetleaf plant response rating shown
| compound | Velvetleaf plant response rating |
| --- | --- |
| C#CCn1c(=O)on(C(=O)N(c2ccc(F)cc2)C(C)C)c1=O | 0 |
| CC(C)N(C(=O)n1oc(=O)n(C2CCCCC2)c1=O)c1ccc(F)cc1 | 0 |
| CCc1noc(CC)c1-n1c(=O)on(C(=O)N(c2ccc(F)cc2)C(C)C)c1=O | 0 |
| CC(C)N(C(=O)n1oc(=O)n(C2CCCCC2)c1=O)c1ccc(Cl)cc1 | 0 |
| CC(C)N(C(=O)n1oc(=O)n(CCCC#N)c1=O)c1ccc(F)cc1 | 5 |

Field: next compound
Record CC(C)N(C(=O)n1oc(=O)n(C2CCCCC2C(F)(F)F)c1=O)c1ccc(F)cc1 (stereo not drawn) ; system velvetleaf; Velvetleaf plant response rating = 3

----------
# Tested on: surinam grass
# assay-notes: Test B pre/postemergence surinam grass
# Format: in vivo, Brachiaria decumbens
# particulars: Preemergence, Rate 250 g/ha; scale 0 to 10, 0 is no effect, 10 is complete control
reported-metric: B. signalgrass plant response rating

| molecule | B. signalgrass plant response rating |
| --- | --- |
| CC(C)N(C(=O)n1oc(=O)n(CC(F)(F)F)c1=O)c1ccc(F)cc1 [Compound 163] | 2 |

Documented B. signalgrass plant response rating of COc1nc(OC)nc(N(C(=O)n2oc(=O)n(C(C)C)c2=O)C(C)C)n1 [Compound 182] : 0

Documented B. signalgrass plant response rating of CCCCn1c(=O)on(C(=O)N(c2ccc(F)cc2)C(C)C)c1=O [Compound 221] : 6
